- Tested on: TK-10 renal
- ASSAY INFO: NCI tumour cell line growth inhibition, 48 h
OBSERVABLE: TGI

COC(=O)C(=C/c1ccc(OC)cc1)/C(C(=O)O)=C(/C)c1ccccc1; > 100 µM
COC(=O)[C@@H](NC(=O)[C@@H](OC)[C@@H]1Cc2cc3cc(OC4CC(OC5CC(O)C(O)C(C)O5)C(O)C(C)O4)c(C)c(O)c3c(O)c2C(=O)[C@H]1OC1CC(OC2CC(OC3CC(C)(O)C(O)C(C)O3)C(O)C(C)O2)C(O)C(C)O1)C(C)C (stereo not given in full); > 32.5 µM
CSC1=C(SC)SC(=C2SC3=C(SC(=C4SCCS4)S3)S2)S1; > 100 µM
Nc1nc(Br)nc2c1ncn2C1CC(O)C(CO)O1 (stereo not given); > 100 µM
CC(=O)O[C@@H]1C[C@]2(C(C)C)O[C@@]1(C)[C@@H]1CCC(C)=C1[C@@H]2OC(=O)/C=C/c1ccccc1; > 100 µM

Summary for this compound, COc1cc(NC(C)CCCN)c2nccc(C)c2c1OC (stereo not given) : TGI is 45.8 µM

So, O=C1c2ccn(CCCCNC(CO)(CO)CO)c2C(=O)c2c1c(O)c1ccccc1c2O ? Its TGI was 1.72 µM

Lab note: CC(=O)c1sc2c(c1OC(=O)c1cccs1)c(=O)n(-c1ccccc1)c(=S)n2-c1ccccc1 gave TGI of 55.4 µM

The compound O=C(C[n+]1ccccc1)NNC(=O)/C(=C/c1ccc2c(c1)OCO2)NC(=O)c1ccccc1 showed TGI equal to > 100 µM

TGI for NC(N)=N/N=C/c1cc(Cl)cc(Cl)c1O is > 100 µM

Form field TGI, entry O=S(O)CCCCSSCc1ccccc1CSSCCCCS(=O)O : > 100 µM

Reported TGI of COc1ccc(C(=O)C(CO)Oc2ccccc2OC)cc1OC (stereo not given) : > 100 µM

# TGI (compound: COc1cc2c(cc1OC)C(O)[C@H](Br)C(C)(C)O2 (stereo not given in full) ) is > 100 µM

Given item CC(=O)c1c(CBr)n([O-])c2ccccc2[n+]1=O , the value recorded as its TGI is 16.6 µM

// TGI value for CC1(C#N)CC(C)(C)C(/C=C2/CC(C)(C)C(/C=C3/OC(=N)CC3(C)C)=N2)=N1 (stereo not given) : > 100 µM

response.value for CC(=O)Oc1ccccc1C(=O)N=C1[Se]CCN1C(=O)c1ccccc1OC(C)=O (field: TGI) = 1.87 µM

Documented TGI of C/C(=N\Nc1cc(CN2CCCC2)c(-c2ccc(Cl)cc2)nn1)C(=O)O : > 100 µM

Data point: COc1cc2c(cc1OCc1ccccc1)CNCC2 ; TGI = > 100 µM

Record CCC1c2[nH]c3ccccc3c2C[C@H]2C(=O)NC(COC(C)(C)C)C(=O)N12 (stereo not given in full) . Reported TGI: > 100 µM

For record CC12CCC(C(=O)OC1=O)C2(C)C (stereo not given) the listed TGI is > 100 µM

Kindly note the recorded TGI for CN(C)C1=Nc2ccccc2C(=S)N2CSCC12 (stereo not given) , which is > 100 µM

In plain terms, O=C(CSc1nnc(-c2ccccc2NC(=O)C(F)(F)F)c(=O)[nH]1)NC(=O)Nc1ccccc1 has a documented TGI of > 100 µM

Looking up N#CC(C(=O)/C(=N/Nc1nc(=S)[nH]n1N)C(C#N)c1ccccc1)c1ccccc1 (stereo not given) , I found its TGI recorded as > 100 µM

// sample CCCCCC(C[N+]1(C)CCOCC1)C(=O)/C=C/c1ccccc1 (stereo not given) , its TGI was 37.8 µM

TGI reading for COc1cccc(CCn2c(N)c(-c3ccccc3)c3ccc([N+](=O)[O-])cc3c2=O)c1 : 5.31 µM

Just so you know, measured TGI for CN=NN(C)C(=O)NC came out at > 100 µM

// field: TGI; key: Cc1cccc2c1[C@]13OC(C)[C@]4(C)CC5OC(=O)[C@@]1(C)[C@@H]5[C@]34C(=O)O2 (stereo not given in full) ; value = > 100 µM

// field: TGI; key: O=C(/C=C/c1ccccc1)/C=C/c1ccccc1 ; value = > 100 µM

What the record says about C=CCn1c(=O)n(CC=C)c(=O)n(CC=C)c1=O : TGI is > 100 µM

Notebook: CCOC(=O)N1CCN(C(=O)c2ccc(C(F)(F)F)nc2Nc2cc(Cl)ccc2C)CC1 , TGI read as 88.9 µM
